B1: VPS39 (parent)
chain: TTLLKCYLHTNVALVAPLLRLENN

variants of: B1; assay: protein stability index of a GFP-peptide fusion (GPS, HEK-293T) (PSI 1-6); higher = more stable; settings: c terminus: a fixed tail appended;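 also: lentivirally expressed fusions sorted by FACS into six bins by GFP to DsRed ratio, PSI derived from sequencing read proportions per bin multiplied by bin number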
I'd appreciate it if you could supply protein stability index values for the items below.
One number for each entry.

Field: example entries. Status: answers known.
E22N
2.13
E22M
2.31
N23F
2.11
L19D
2.11
N23Q
3.88

Report protein stability index for each item below.
1. L4W
2. Y7S
3. L4R
4. H9Y
5. L14P
6. N11C
7. L8I
8. L19P

1. 1.78
2. 3.15
3. 2.48
4. 1.63
5. 1.9
6. 2.59
7. 3.7
8. 1.52
